tested on: VEGFR-2 (KDR kinase) (Homo sapiens, UniProt P35968, DEL940-989/E990V)
Sequence (P35968 with tags, fused parts or gaps DEL940-989/E990V): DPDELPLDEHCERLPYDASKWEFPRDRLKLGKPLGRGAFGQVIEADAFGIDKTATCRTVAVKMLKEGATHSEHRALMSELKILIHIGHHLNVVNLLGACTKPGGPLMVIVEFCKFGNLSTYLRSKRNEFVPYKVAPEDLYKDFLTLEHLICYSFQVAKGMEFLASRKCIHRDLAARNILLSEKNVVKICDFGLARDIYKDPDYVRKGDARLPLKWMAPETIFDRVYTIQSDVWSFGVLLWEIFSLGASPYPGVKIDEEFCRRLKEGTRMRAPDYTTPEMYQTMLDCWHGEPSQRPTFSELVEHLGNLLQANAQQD
test protocol: KDR Kinase Assay (VEGFR-2)
Type: biochemical
settings: ratio VEGFR-2 IC50 / MET IC50
experimental readout: Fold Selectivity VEGFR-2/MET

chemical structure: CN1CCN(C2CCN(C(=O)Nc3cc(Oc4cc(F)c(NC(=O)C5(C(=O)Nc6ccc(F)cc6)CC5)cc4F)ccn3)CC2)CC1
Fold Selectivity VEGFR-2/MET: 2.13

(A) O=C(Nc1cc(Oc2cc(F)c(NC(=O)C3(C(=O)Nc4ccc(F)cc4)CC3)cc2F)ccn1)N1CC(CO)C1
(B) CC(=O)Nc1cc(Oc2cc(F)c(NC(=O)C3(C(=O)Nc4ccc(F)cc4)CC3)cc2F)ccn1
(C) CC(=O)Nc1cc(Oc2ccc(NC(=O)C3(C(=O)Nc4ccc(F)cc4)CC3)c(F)c2)ccn1
Query block: Exam item: list the entries in increasing order of Fold Selectivity VEGFR-2/MET. Order the labels as requested and give them as your answer.
Result block: A, C, B
